- Read-out: Ezrin (EZR), EZR (gene 7430)
- assay protocol: LTEA_HepaRG_EZR: Life Technologies and Expression Analysis (LTEA) Assay for Ezrin (EZR) using HepaRG (AID 2283491)
- test settings: mRNA level, 48 h; actives raise or lower the signal
Active and inactive are the calls of the source. The calls were made as follows: active = hit-call score of the fitted dose curve at least 0.9, where 1 is the maximum; inactive = score below 0.9.
The reply should name one outcome from class 1 for active, class 0 for inactive

Previously resolved entries follow.
**Q:** Give the logged outcome of this assay for the following compound: CCOCCOCCOCCO
**A:** class 0

**Q:** Repeat for the following compound: CC1=CC(=O)CC(C)(C)C1
**A:** class 0

**Q:** Now give it for CCCCCCCCCCCCc1ccccc1 too.
**A:** class 0

**Q:** Another compound to check: CC(C)CCCCCCCOC(=O)CCCCC(=O)OCCCCCCCC(C)C
**A:** class 0

**Q:** And what about the compound COc1cccc(-c2ccc(/C=C\CN3CCCCCC3)cc2Cl)c1 ?
**A:** class 1

---
**Q:** // param item: C=CC(=C)CCC=C(C)C ; yields the recorded call
**A:** class 0

**Q:** Further, for O=C(CCCCCCCCc1cccnc1)N1CCC(C=C(c2ccccc2)c2ccccc2)CC1 ?
**A:** class 1

**Q:** Also check CCCN(C1CCN(C(=O)C2CCNCC2)CC1)[C@@H]1CCc2ccc(OC)cc2C1
**A:** class 0

**Q:** Now consider CC1(C)C(=O)N(Br)C(=O)N1Br .
**A:** class 0

**Q:** Likewise for CCCCC(CC)COC(=O)CCCCCCCCC(=O)OCC(CC)CCCC (centres undefined) ?
**A:** class 0

**Q:** O=P(OC(CCl)CCl)(OC(CCl)CCl)OC(CCl)CCl , same question.
**A:** class 1

**Q:** Record: CC(C)CC(C)(O)C#CC(C)(O)CC(C)C (centres undefined)
**A:** class 0

**Q:** Consider next the compound C=CCCCCCCCCC(=O)O in the same way.
**A:** class 0

**Q:** Item: O=C(O)CCN(C1(C(=O)NO)CCCC1)S(=O)(=O)c1ccc(Oc2ccc(F)cc2)cc1
**A:** class 0

**Q:** Further, for COC(=O)c1c(Cl)c(Cl)c(C(=O)OC)c(Cl)c1Cl ?
**A:** class 0

**Q:** Similarly, CC(=O)OC[C@H]1O[C@@](COC(C)=O)(O[C@H]2O[C@H](COC(C)=O)[C@@H](OC(C)=O)[C@H](OC(C)=O)[C@H]2OC(C)=O)[C@@H](OC(C)=O)[C@@H]1OC(C)=O ?
**A:** class 0

**Q:** Request: CCn1nc(Cc2ccccc2)cc1C1CCN(C[C@H]2C[C@H](N(C)[C@@H](C(=O)O)C(C)C)C[C@@H]2c2cccc(F)c2)CC1
**A:** class 0
